System: Saccharomyces cerevisiae BY4741 SeMeCo community
Assay: z-score of subpopulation abundance vs DMSO median, subpopulation auxotrophic for L; higher = larger share of this subpopulation than in DMSO controls
Conditions: 10 µM; 24 h; SM minimal medium; subpopulation (auxotrophy): L
Structures can show the parent of a compound that is named as a salt.
A collection of compounds and their measured z-score of subpopulation abundance

{"Compound": "NC(=O)N1c2ccccc2C=Cc2ccccc21 [Carbamazepine]", "z-score of subpopulation abundance": 0.25}
{"Compound": "CN(C)CCCN1c2ccccc2CCc2ccc(Cl)cc21 [Clomipramine HCl]", "z-score of subpopulation abundance": -0.45}
{"Compound": "C#CCN[C@@H]1CCc2ccccc21 [Rasagiline]", "z-score of subpopulation abundance": -0.1}
{"Compound": "CCCCCc1ccc(C)cc1O", "z-score of subpopulation abundance": 0.4}
{"Compound": "Cc1[nH]c(=O)c(C#N)cc1-c1ccncc1", "z-score of subpopulation abundance": -0.03}
{"Compound": "Cc1ccc(Nc2c(F)cccc2Cl)c(CC(=O)O)c1", "z-score of subpopulation abundance": -1.37}
{"Compound": "CN(C)CCc1c[nH]c2ccc(CS(=O)(=O)N3CCCC3)cc12 [Almotriptan Malate]", "z-score of subpopulation abundance": 0.74}
{"Compound": "CC1(C)S[C@@H]2[C@H](NC(=O)[C@H](N)c3ccccc3)C(=O)N2[C@H]1C(=O)OCOC(=O)[C@@H]1N2C(=O)C[C@H]2S(=O)(=O)C1(C)C [Sultamicillin]", "z-score of subpopulation abundance": 1.05}
{"Compound": "CC(=O)[C@@]1(O)CC[C@H]2[C@@H]3C[C@H](C)C4=CC(=O)CC[C@]4(C)[C@H]3CC[C@@]21C", "z-score of subpopulation abundance": 0.51}
{"Compound": "CCN1CCN(C(=O)N[C@@H](C(=O)N[C@@H]2C(=O)N3C(C(=O)O)=C(CSc4nnnn4C)CS[C@H]23)c2ccc(O)cc2)C(=O)C1=O", "z-score of subpopulation abundance": 0.4}
{"Compound": "C[C@@H](CN1CC(=O)NC(=O)C1)N1CC(=O)NC(=O)C1 [Dexrazoxane HCl (ICRF-187, ADR-529)]", "z-score of subpopulation abundance": -1.96}
{"Compound": "CO[C@H]1C[C@@H]2CC[C@@H](C)[C@@](O)(O2)C(=O)C(=O)N2CCCC[C@H]2C(=O)O[C@H]([C@H](C)C[C@@H]2CC[C@@H](O)[C@H](OC)C2)CC(=O)[C@H](C)/C=C(\\C)[C@@H](O)[C@@H](OC)C(=O)[C@H](C)C[C@H](C)/C=C/C=C/C=C/1C [Rapamycin (Sirolimus)]", "z-score of subpopulation abundance": -1.39}
{"Compound": "CN1CC(=O)N2[C@H](c3ccc4c(c3)OCO4)c3[nH]c4ccccc4c3C[C@@H]2C1=O", "z-score of subpopulation abundance": 1.85}
{"Compound": "Oc1ccc([C@H]2COc3cc(O)ccc3C2)cc1", "z-score of subpopulation abundance": -0.21}
{"Compound": "Clc1ccc(C(Cn2ccnc2)OCc2csc3c(Cl)cccc23)c(Cl)c1 (stereo not drawn) [Sertaconazole nitrate]", "z-score of subpopulation abundance": 1.38}
{"Compound": "CNC1CCCN(c2c(F)cc3c(=O)c(C(=O)O)cn(C4CC4)c3c2OC)C1 (stereo not drawn)", "z-score of subpopulation abundance": -0.33}
{"Compound": "CC(C)[C@H]1CC[C@H](C(=O)N[C@H](Cc2ccccc2)C(=O)O)CC1 [Nateglinide]", "z-score of subpopulation abundance": 0.26}
{"Compound": "CN[C@@H]1[C@@H](O[C@H]2O[C@H](CO)[C@@H](N)[C@H](O)[C@H]2O)OC2C[C@@H](N)[C@@H](O[C@H]3[C@H](O)[C@@H](O)[C@H](N)C[C@@H]3N)OC2[C@@H]1O (stereo partly drawn) [Apramycin Sulfate]", "z-score of subpopulation abundance": -0.01}

---

A collection of compounds and their measured z-score of subpopulation abundance
Test system: Saccharomyces cerevisiae BY4741 SeMeCo community
Assay: z-score of subpopulation abundance vs DMSO median, subpopulation auxotrophic for LUM; higher = larger share of this subpopulation than in DMSO controls
Details: 10 µM; 24 h; SM minimal medium; subpopulation (auxotrophy): LUM
Structures can show the parent of a compound that is named as a salt.
Measured Endpoint: z-score of subpopulation abundance

{"Compound": "CCOC(=O)c1ccc(O)cc1", "Measured Endpoint": "z-score of subpopulation abundance", "Result": 0.63}
{"Compound": "CN1CCN(CC(=O)N2c3ccccc3C(=O)Nc3cccnc32)CC1 [Pirenzepine dihydrochloride]", "Measured Endpoint": "z-score of subpopulation abundance", "Result": -1.37}
{"Compound": "CN1C[C@@H]2C[C@H]1CN2c1cc2c(cc1F)c(=O)c(C(=O)O)cn2C1CC1 [Danofloxacin Mesylate]", "Measured Endpoint": "z-score of subpopulation abundance", "Result": -0.46}
{"Compound": "NC1CCN(c2nc3c(cc2F)c(=O)c(C(=O)O)cn3-c2ccc(F)cc2F)C1 (centres undefined) [Tosufloxacin p-Toluenesulfonate Hydrate]", "Measured Endpoint": "z-score of subpopulation abundance", "Result": -0.71}

---

A collection of compounds and their measured z-score of subpopulation abundance
System: Saccharomyces cerevisiae BY4741 SeMeCo community
Assay: z-score of subpopulation abundance vs DMSO median, subpopulation auxotrophic for UM; higher = larger share of this subpopulation than in DMSO controls
Details: 10 µM; 24 h; SM minimal medium; subpopulation (auxotrophy): UM

{"Compound": "Cc1ncc([N+](=O)[O-])n1CC(O)CCl (stereo unspecified)", "Experimental System": "Saccharomyces cerevisiae BY4741 SeMeCo community", "z-score of subpopulation abundance": -0.4}
{"Compound": "C=CC[C@@H]1/C=C(\\C)C[C@H](C)C[C@H](OC)[C@H]2O[C@@](O)(C(=O)C(=O)N3CCCC[C@H]3C(=O)O[C@H](/C(C)=C/[C@@H]3CC[C@@H](O)[C@H](OC)C3)[C@H](C)[C@@H](O)CC1=O)[C@H](C)C[C@@H]2OC", "Experimental System": "Saccharomyces cerevisiae BY4741 SeMeCo community", "z-score of subpopulation abundance": 1.02}
{"Compound": "CC(=O)OCC1=C(C(=O)O)N2C(=O)C(NC(=O)CSC(=NC(C)C)NC(C)C)C2SC1 (stereo unspecified)", "Experimental System": "Saccharomyces cerevisiae BY4741 SeMeCo community", "z-score of subpopulation abundance": 0.84}
{"Compound": "C[C@]12CC[C@@H]3c4ccc(O)cc4C[C@@H](CCCCCCCCC[S+]([O-])CCCC(F)(F)C(F)(F)F)[C@H]3[C@@H]1CC[C@@H]2O (stereo partly specified)", "Experimental System": "Saccharomyces cerevisiae BY4741 SeMeCo community", "z-score of subpopulation abundance": 0.53}
{"Compound": "COc1ccc(C2CNC(=O)C2)cc1OC1CCCC1 (stereo unspecified)", "Experimental System": "Saccharomyces cerevisiae BY4741 SeMeCo community", "z-score of subpopulation abundance": -0.35}
{"Compound": "COC(=O)C1=C(C#N)NC(C)=C(C(=O)OC(C)C)C1c1cccc([N+](=O)[O-])c1 (stereo unspecified)", "Experimental System": "Saccharomyces cerevisiae BY4741 SeMeCo community", "z-score of subpopulation abundance": -0.73}

---

Tested on: Saccharomyces cerevisiae BY4741 SeMeCo community
Test: z-score of subpopulation abundance vs DMSO median, subpopulation auxotrophic for L; higher = larger share of this subpopulation than in DMSO controls
Settings: 10 µM; 24 h; SM minimal medium; subpopulation (auxotrophy): L
Counter-ions that a name gives are not always drawn.
Use -0.4 as the dividing line for z-score of subpopulation abundance, with the line itself on the yes side and lower values as no.

{"Compound": "COc1ccc2cc(C(=O)O)ccc2c1 [6-Methoxy-2-naphthoic acid]", "Assigned Category": "yes"}
{"Compound": "COCCCN1CCC(NC(=O)c2cc(Cl)c(N)c3c2OCC3)CC1 [Prucalopride Succinate]", "Assigned Category": "yes"}
{"Compound": "Nc1ccc2cc3ccc(N)cc3nc2c1 [Proflavine Hemisulfate]", "Assigned Category": "no"}
{"Compound": "Cc1ncc([N+](=O)[O-])n1CC(O)CCl (centres undefined) [Ornidazole]", "Assigned Category": "yes"}
{"Compound": "Cc1nnc(SCC2=C(C(=O)O)N3C(=O)[C@@H](NC(=O)Cn4cnnn4)[C@H]3SC2)s1 [Cefazolin Sodium]", "Assigned Category": "yes"}
{"Compound": "Cc1ccc2c(Cl)cc(Cl)c(O)c2n1 [Chlorquinaldol]", "Assigned Category": "yes"}
{"Compound": "N#CC(c1ccc(Cl)cc1)c1c(Cl)cc(-n2ncc(=O)[nH]c2=O)cc1Cl (centres undefined) [Diclazuril]", "Assigned Category": "yes"}
{"Compound": "CCN(CC)C(=O)[C@@]1(c2ccccc2)C[C@H]1CN [Levomilnacipran Hydrochloride]", "Assigned Category": "no"}
{"Compound": "CS(=O)(=O)c1ccc([C@@H](O)[C@@H](CF)NC(=O)C(Cl)Cl)cc1 [Florfenicol]", "Assigned Category": "yes"}
{"Compound": "CCC[C@@H]1C[C@@H](C(=O)N[C@@H]([C@H]2O[C@H](SC)[C@H](O)[C@@H](O)[C@H]2O)[C@@H](C)O)N(C)C1 [Lincomycin HCl]", "Assigned Category": "no"}
{"Compound": "CCCCCCCCCCCCCCCC[N+](C)(C)C [Cetrimonium Bromide (CTAB)]", "Assigned Category": "no"}
{"Compound": "O=C(O)CCc1nc(-c2ccccc2)c(-c2ccccc2)o1 [Oxaprozin]", "Assigned Category": "no"}
{"Compound": "Nc1nc(O)c2ncn(CCC(CO)CO)c2n1 [Penciclovir]", "Assigned Category": "yes"}
